- experimental-system: Short transient receptor potential channel 4 (Mus musculus) (UniProt Q9QUQ5)
- Sequence (Q9QUQ5 whole entry, looked up): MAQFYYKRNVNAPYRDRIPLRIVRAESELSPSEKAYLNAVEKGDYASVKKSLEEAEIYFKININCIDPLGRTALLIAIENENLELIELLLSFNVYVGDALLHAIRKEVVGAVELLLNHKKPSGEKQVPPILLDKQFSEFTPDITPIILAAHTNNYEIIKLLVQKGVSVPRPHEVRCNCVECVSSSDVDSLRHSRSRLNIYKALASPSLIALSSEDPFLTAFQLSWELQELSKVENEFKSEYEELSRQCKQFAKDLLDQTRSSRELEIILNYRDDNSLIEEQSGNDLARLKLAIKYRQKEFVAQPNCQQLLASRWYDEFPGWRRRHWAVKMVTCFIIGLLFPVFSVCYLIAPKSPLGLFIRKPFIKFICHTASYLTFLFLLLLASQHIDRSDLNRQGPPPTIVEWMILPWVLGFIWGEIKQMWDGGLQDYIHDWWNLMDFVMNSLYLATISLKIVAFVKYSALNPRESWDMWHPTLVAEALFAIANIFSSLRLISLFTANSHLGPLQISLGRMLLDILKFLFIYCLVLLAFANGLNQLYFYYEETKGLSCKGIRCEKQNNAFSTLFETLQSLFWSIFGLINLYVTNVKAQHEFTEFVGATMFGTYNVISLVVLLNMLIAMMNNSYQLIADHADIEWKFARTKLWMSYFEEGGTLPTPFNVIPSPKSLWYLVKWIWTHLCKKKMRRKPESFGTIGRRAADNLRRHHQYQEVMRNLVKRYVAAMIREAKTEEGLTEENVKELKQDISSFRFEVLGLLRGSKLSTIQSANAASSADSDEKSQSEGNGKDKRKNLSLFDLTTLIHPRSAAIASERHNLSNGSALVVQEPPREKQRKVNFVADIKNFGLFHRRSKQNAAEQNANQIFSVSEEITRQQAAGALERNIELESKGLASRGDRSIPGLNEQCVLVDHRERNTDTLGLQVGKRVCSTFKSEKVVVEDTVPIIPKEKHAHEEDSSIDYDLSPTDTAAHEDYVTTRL
- assay: blockers of DAMGO-evoked TRPC4 calcium flux – cell-based, second round, Fluo4, HEK293 TRPC4beta/mu-opioid, 1 µM, confirmation (AID 2637)
- measurement-setup: at 1 µM
Calls of active or inactive are those of the source.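 The calls were made as follows: active = calcium signal ratio cut to more than 3 SD under the fully stimulated control mean yet still positive, in both repeats and the primary screen; inactive = the rest.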
Thanks in advance; please answer with one of these: true (1) = active, false (0) = inactive

Some entries whose results are on file:
1) CCN(CCNC(=O)C1CCCN(c2ncnc3c2nc2n3CCCCC2)C1)Cc1ccccc1 (configuration not stated)	false (0)
2) CCN1CCCC(OC(=O)c2cc(-c3ccccc3Cl)nc3ccccc23)C1 (configuration not stated)	false (0)
3) CC1CN(C)C(C)c2c1oc1ccc(N)cc21 (configuration not stated)	false (0)
4) CCOc1cc(/C=C2\C(=N)N3N=CSC3=NC2=O)ccc1OS(=O)(=O)c1ccccc1	false (0)
5) CSCCNCc1cn(-c2ccc(F)cc2F)nc1-c1ccccc1C	false (0)
6) CC(OC(=O)Cn1cnc2c1c(=O)n(C)c(=O)n2C)C(=O)Nc1ccc(Cl)cc1 (configuration not stated)	false (0)
7) COC(=O)c1ccc(C(=S)NCC2(N(C)C)CCCCC2)cc1	false (0)
8) Cc1ccc(Cn2c(=N)n(CC(O)c3ccco3)c3ccccc32)cc1 (configuration not stated)	true (1)

Ask | Hey, what did the test say about Cc1cccc(N(Cc2ccccc2)C(=O)CSC(C)C(=O)Nc2cc(C)on2)c1 (configuration not stated) ?
Reply | false (0)

Ask | Similarly, COc1ccc(F)cc1CN1CCN(C(=O)CCC(=O)Nc2nnc(C(C)C)s2)CC1 ?
Reply | false (0)

Ask | Similarly, O=C(OCC(=O)N1CCOCC1)c1cccc(S(=O)(=O)N2CCCc3ccccc32)c1 ?
Reply | false (0)

Ask | Similarly, CCOc1ccc(CN2CCNC(=O)C2CC(=O)NCCc2ccccn2)cc1 (configuration not stated) ?
Reply | false (0)

Ask | Similarly, O=S(=O)(c1ccccc1Cl)N1CCC(Cc2ccccc2)CC1 ?
Reply | false (0)

Ask | Similarly, COc1ccc(Nc2c3c(nc4ccccc24)CCC3)cc1 ?
Reply | false (0)

Ask | Similarly, N#CC1=C(N)C(C#N)(C#N)C(c2cccnc2)C2CC(c3ccccc3)CC=C12 (configuration not stated) ?
Reply | false (0)

Ask | Similarly, Fc1ccccc1CNCCC(Cc1ccccc1)c1ccc2c(c1)OCO2 (configuration not stated) ?
Reply | false (0)

Ask | Similarly, Cc1ccnc(NC(=O)COC(=O)C23CC4CC(CC(C4)C2)C3)n1 ?
Reply | false (0)

Ask | Similarly, Cc1ccc(C(C)C)cc1OCCCCN1CCCC1 ?
Reply | false (0)

Ask | Similarly, O=[N+]([O-])c1cc(Cl)cc(/C=N/NC(=S)Nc2ccc(S(=O)(=O)N3CCOCC3)cc2)c1O ?
Reply | false (0)

Ask | Similarly, O=C(c1ccc(Cl)c(Cl)c1)N(Cc1ccco1)c1ccc(O)cc1 ?
Reply | false (0)

Ask | Similarly, O=c1c2ccccc2nc(COc2ccccc2)n1/N=C/c1cc([N+](=O)[O-])ccc1O ?
Reply | false (0)

Ask | Similarly, COc1ccc(C(=O)C2CCCN(Cc3ccc(Sc4nncn4C)o3)C2)cc1F (configuration not stated) ?
Reply | false (0)
